# experimental_setup: Liquid; Ebulliometric method (Recirculating still)
observation_type: Normal boiling temperature (°C)
Express the result in °C but write the number alone.

Some molecules with recorded Normal boiling temperature:
{"molecule": "CC(C)(C)Cl", "Normal boiling temperature, °C": 50.73}
{"molecule": "CCCCCl", "Normal boiling temperature, °C": 78.37}
{"molecule": "CCC(C)Cl (centres undefined)", "Normal boiling temperature, °C": 68.11}

input: Fill in: Normal boiling temperature of CC(C)CCl is ___
output: 68.90

###

# experimental_setup: 298.15 K; 101.33 kPa; Liquid
Note to self: use t only for mass density readings below 900 kg/m3; a reading exactly at 900 kg/m3 still gets f.

{"compound": "CC(C)(C)Cl", "class_label": "t"}

input: Is it true that mass density reported for C1COCCO1 is less than 900 kg/m3?
output: f

input: Is it true that mass density reported for CC(C)CCl is less than 900 kg/m3?
output: t

input: Is it true that mass density reported for CCC(C)Cl (stereo not given) is less than 900 kg/m3?
output: t
